assay: compound effects on multiple myeloma cell viability – MM1S, calcein-AM fluorescence, 48 h, basal, profiling panel (AID 1165); settings: higher = more signal;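 also: viability of MM1S multiple myeloma cells under basal unstimulated conditions; test concentration not given here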
Reported Property: z-score
One number for each entry.

Please review the entries below; each comes with its answer.
Compound	Reported Result
COC(=O)C1(Cc2ccccc2)C=C2C(=C(C)C(=O)C2C)CN1 (configuration not stated)	0.232
COc1ccc(C(=O)Nc2ccc3c(c2)[C@@]2(O[C@H](CCO)[C@@H]([Si](C)(C)c4ccc(OC)cc4)[C@@H]2C)C(=O)N3Cc2ccccc2)cc1	-2.72
COc1ccc([Si](C)(C)[C@H]2[C@H](CC(=O)N3Cc4ccccc4C[C@H]3CO)O[C@@]3(C(=O)N(C)c4c(Br)cc(C)cc43)[C@@H]2C)cc1	-2.71

Look up z-score for the entries below, preserving their order.
1. C=C(COC)/C(=C/C[C@@H](OC(C)=O)c1ccccc1OCCO)c1cnc2ccccc2c1
2. COC(=O)[C@@]1(Cc2ccc(F)cc2)[C@H]2c3cc(C(=O)N4CCCC4)n(CCc4ccccn4)c3C[C@H]2CN1C(=O)c1ccccc1
3. OCCCC1=CC(c2ccc(CN3CCCC3)cc2)N(Cc2cccc(OC(F)(F)F)c2)CC1 (configuration not stated)
4. COc1ccc(C(=O)Nc2cccc(CN3C(=O)[C@@]4(O[C@@H](CC(=O)N5CCC[C@H]5CO)[C@H]([Si](C)(C)c5ccc(OC)cc5)[C@H]4C)c4ccccc43)c2)cc1

[-2.48, -0.118, -3.3, -2.74]

----------
test system: Human papillomavirus type 1a E7 protein (residues 1-88); experiment: HPV1a E7 small-molecule binders, primary screen, biochemical, small-molecule microarray, residues 1-88, 635 nm (AID 1129); conditions: small-molecule microarray binding, fluorescence 635 nm; higher = more signal
Reported Property: composite z-score

Molecule	Target Of Assay	composite z-score
[N-]=[N+]=Nc1ccccc1[C@H]1OC(c2ccc(OCCCO)cc2)=N[C@@]1(Cc1ccccc1)C(=O)NCC(O)CO (stereo partly specified)	Human papillomavirus type 1a E7 protein (residues 1-88)	1.21
COC(=O)[C@H](Cc1ccccc1)N1CC2=CCCC=C[C@@H]2[C@H]1[C@H](O)Cc1ccccc1	Human papillomavirus type 1a E7 protein (residues 1-88)	0.431
COCCOC(=O)N1C(=O)[C@@]2(c3cc(C#CCC(C(=O)OC)C(=O)OC)ccc31)[C@H](C(N)=O)[C@H]1C(=O)O[C@H](c3ccccc3)[C@H](c3ccccc3)N1[C@@H]2c1ccc(O)cc1	Human papillomavirus type 1a E7 protein (residues 1-88)	1.23
Cc1ccc(S[C@]2(C(=O)NCC(F)(F)F)CC(=O)N(Cc3ccccc3C(F)(F)F)[C@@H]2c2ccc(CO)cc2)cc1	Human papillomavirus type 1a E7 protein (residues 1-88)	-0.481
O=C1O[C@@H](c2ccccc2)[C@@H](c2ccccc2)N2[C@@H](c3ccc(OCCO)cc3)[C@]3(C(=O)Nc4ccc(C#CC5(O)CCCCCC5)cc43)[C@@H](C(=O)O)[C@H]12	Human papillomavirus type 1a E7 protein (residues 1-88)	1.18

Query molecule follows.
Supply reported composite z-score belonging to this molecule: CC(C)C[C@@H]1NC(=O)[C@@]23C(=O)N[C@@H](Cc4ccccc4)C2[C@H](C)[C@@]2(C)O[C@H]2C3/C=C/C/C=C\CNC(=O)CNC1=O (stereo partly specified)
0.088
